B1: Ankyrin-1, residues 1405 to 1484; numbered along this chain, P16157 (parent)
chain: MKMAVISEHLGLSWAELARELQFSVEDINRIRVENPNSLLEQSVALLNLWVIREGQNANMENLYTALQSIDRGEIVNMLE

Variants of: B1
Assay: abundance fitness (aPCA) (normalised: wild type 0, dead -1); higher = more abundant; growth selection in yeast, the domain comes from the species named
Details: Homo sapiens
readout: abundance fitness
Please reply with the number alone, leaving off any unit.

mutantName | abundance fitness
T65F | -0.095
M60P | -0.207
N77E | -0.111

## Task Fill in: abundance fitness of S69N is ___
## Result -0.106

## Task abundance fitness for V76T ?
## Result -0.244

## Task What value of abundance fitness has been recorded for this entry: L79S
## Result 0.014
